system_tested: tryptophanase of Bacteroides thetaiotamicron (Bacteroides thetaiotaomicron, UniProt Q8A7N2)
Sequence (Q8A7N2 entry or part of it, change not shown): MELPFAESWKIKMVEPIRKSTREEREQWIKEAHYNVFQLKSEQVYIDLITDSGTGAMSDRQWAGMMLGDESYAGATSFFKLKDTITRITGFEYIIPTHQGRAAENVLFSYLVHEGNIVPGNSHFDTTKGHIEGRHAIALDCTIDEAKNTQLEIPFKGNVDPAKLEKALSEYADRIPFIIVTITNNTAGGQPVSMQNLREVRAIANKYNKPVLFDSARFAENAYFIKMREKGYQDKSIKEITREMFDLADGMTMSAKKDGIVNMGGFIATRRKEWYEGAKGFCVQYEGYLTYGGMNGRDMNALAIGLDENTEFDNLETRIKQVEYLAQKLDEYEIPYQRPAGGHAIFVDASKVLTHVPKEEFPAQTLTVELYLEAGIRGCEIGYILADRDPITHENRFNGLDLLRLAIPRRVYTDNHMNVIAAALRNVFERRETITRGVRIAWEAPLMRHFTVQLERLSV
pIC50: −log10 of the molar value.
Give Satisfied when the value for pIC50 is at least 5. Give Not satisfied when it is less.

Item CCC(CC)(NC(=O)Nc1ccc(F)cc1)C(=O)O [Compound D] with pIC50 of 5 or above? Not satisfied

Item CCC(CC)(NC(=O)Nc1ccc(Cl)cc1)C(=O)O [Compound C] with pIC50 of 5 or above? Not satisfied

Item CCC(CC)(NC(=O)Nc1csc(Cl)c1)C(=O)O [Example 27] with pIC50 of 5 or above? Satisfied

Item CCC(CC)(NC(=O)Nc1ccc(N2CCC(F)(F)C2)cc1)C(=O)O [Example 44] with pIC50 of 5 or above? Satisfied

Item CCC(CC)(NC(=O)Nc1ccc(OC(F)(F)F)cc1)C(=O)O [Example 1] with pIC50 of 5 or above? Satisfied

---

Field: pIC50. Provide a value for each of the molecules that follow.
Note: pIC50 values are expressed as the negative base-10 logarithm of concentration in M.

# return pIC50 for CCC(CC)(NC(=O)Nc1cc(F)cc(C#N)c1)C(=O)O , test system: tryptophanase of Bacteroides thetaiotamicron (Bacteroides thetaiotaomicron) 4.70

# return pIC50 for CCC(CC)(NC(=O)Nc1ccc(-c2ccccc2F)cc1)C(=O)O , test system: tryptophanase of Bacteroides thetaiotamicron (Bacteroides thetaiotaomicron) 7.00

# return pIC50 for CC(NC(=O)Nc1ccc(OC(F)(F)F)cc1)(C(=O)O)C1CC1 (centres unmarked) , test system: tryptophanase of Bacteroides thetaiotamicron (Bacteroides thetaiotaomicron) 4.69

# return pIC50 for CC[C@@](C)(NC(=O)Nc1ccc(Cl)cc1)C(=O)O , test system: tryptophanase of Bacteroides thetaiotamicron (Bacteroides thetaiotaomicron) 4.57

# return pIC50 for CCC(CC)(NC(=O)Nc1ccc(Cl)s1)C(=O)O , test system: tryptophanase of Bacteroides thetaiotamicron (Bacteroides thetaiotaomicron) 5.49

---

For reference, log10 of IC50 measured on UniProt Q8A7N2:
Please note: log10 values; quantity IC50; unit µM.

Specify measured log10 of IC50 for CC[C@@](C)(NC(=O)Nc1ccc(CC(F)(F)F)cc1)C(=O)O [Example 13] . 0.83

Specify measured log10 of IC50 for CC[C@@](C)(NC(=O)Nc1ccc(OC(F)F)cc1)C(=O)O [Example 8] . 1.11

Specify measured log10 of IC50 for CCC(CC)(NC(=O)Nc1ccc(-c2ccccc2)cc1)C(=O)O [Example 41] . -0.52

Specify measured log10 of IC50 for O=C(Nc1ccc(OC(F)F)cc1)NC(C(=O)O)(C1CC1)C1CC1 [Example 10] . 0.28

Specify measured log10 of IC50 for CCC(CC)(NC(=O)Nc1ccc(SC(F)(F)F)cc1)C(=O)O [Example 14] . -0.40

Specify measured log10 of IC50 for O=C(Nc1ccc(OC(F)(F)F)cc1)NC(C(=O)O)(C1CC1)C1CC1 [Example 5] . 0.23

Specify measured log10 of IC50 for N#CCc1ccc(NC(=O)NC(C(=O)O)(C2CC2)C2CC2)cc1 [Example 38] . 0.53

Specify measured log10 of IC50 for CC[C@@](C)(NC(=O)Nc1ccc(OC(F)F)cc1F)C(=O)O [Example 17] . 1.09

Specify measured log10 of IC50 for CC[C@@](C)(NC(=O)Nc1ccc(Cl)c(Cl)c1)C(=O)O [Example 29] . 1.19
